# System: HS 578T breast
# PROTOCOL: NCI-60 one-dose screen, 48 h
# MEASUREMENT_PARAMETERS: 10 µM
About 83,000 compounds went through this panel and 20% of them were active in at least one assay; those are over-represented in the sample as a whole. Calls of active or inactive are those of the source. Rule for the calls: active = growth percent below 10; inactive = the rest.
Please state which outcome applies, choosing from class 1 (active), class 0 (inactive)

Query block: Any idea what this test logged for COc1ccc2nc(Cl)c(Cn3nnc(Cc4ccccc4)n3)cc2c1 ?
Result block: class 0

Query block: Any idea what this test logged for O=C(N/N=C/c1ccc([N+](=O)[O-])cc1)c1ccccc1Nc1cccc(C(F)(F)F)c1 ?
Result block: class 1

Query block: Any idea what this test logged for N#Cc1c(-c2ccc(Cl)cc2)csc1NC(=O)Nc1ccc(Cl)c(C(F)(F)F)c1 ?
Result block: class 0

Query block: Any idea what this test logged for CCCCCCCCCCOC(c1ccccc1)c1ccccc1 ?
Result block: class 0

Query block: Any idea what this test logged for CN(C)CCN(Cc1ccccc1)c1ccc2ccccc2n1 ?
Result block: class 0

Query block: Any idea what this test logged for COc1cc(OC)c2c(=O)c(O)c(-c3ccccc3)oc2c1 ?
Result block: class 0

Query block: Any idea what this test logged for CCOC(=O)c1cc(C(=O)c2cc(OC)c(OC)c(OC)c2)n2nc(C)ccc12 ?
Result block: class 0

Query block: Any idea what this test logged for COc1cc2cc(Oc3ccc(NC(=O)c4cccc(C(F)(F)F)c4)cc3)c(C)nc2cc1OC ?
Result block: class 0

Query block: Any idea what this test logged for O=C(O)Cc1ccc(O)c(O)c1 ?
Result block: class 0

Query block: Any idea what this test logged for CN(C)CCC1(c2ccccc2)CCN(C)C1=O (stereo unspecified) ?
Result block: class 0

Query block: Any idea what this test logged for Clc1ccc(C2=NN=C3C(Cc4ccccc4)=Nc4ccccc4N3C2)cc1 ?
Result block: class 0

====

# System: SW-620 colon
# PROTOCOL: NCI-60 one-dose screen, 48 h (100 = growth as untreated, 0 = no growth, -100 = all killed)
# MEASUREMENT_PARAMETERS: 10 µM
This is part of a sample that, as a whole, favours compounds with a hit. Of some 83,000 tested, about 20% had one in any assay.
ENDPOINT_NAME: growth (%)
Numbers only; they are read as %.

Query block: So what's the measured growth for this one? CC(C)(C)c1ccc(S(=O)(=O)N[C@H]2CC[C@H]3[C@@H]4CCc5cc(O)ccc5[C@H]4CC[C@]23C)cc1
Result block: 58.5

Query block: So what's the measured growth for this one? O=S(=O)(O)c1cccc(Nc2ccc3ccccc3c2)c1
Result block: 93.2

Query block: So what's the measured growth for this one? CCN(CCCNc1cc2c(c(N)c1S(=O)(=O)O)C(=O)c1ccccc1C2=O)c1ccccc1
Result block: 113

Query block: So what's the measured growth for this one? CC(=O)/C(=C/c1ccc(Br)cc1)C(=O)c1ccccc1
Result block: 58.2

Query block: So what's the measured growth for this one? COc1cc(/C=C2\CCCC3C2=Nc2ccccc2NC3c2cc(OC)c(OC)c(OC)c2)cc(OC)c1OC (stereo not given)
Result block: 5.74

====

# Tested on: KM12 colon
# PROTOCOL: NCI-60 one-dose screen, 48 h (100 = growth as untreated, 0 = no growth, -100 = all killed)
# MEASUREMENT_PARAMETERS: 10 µM
This is part of a sample that, as a whole, favours compounds with a hit. Of some 83,000 tested, about 20% had one in any assay.
ENDPOINT_NAME: growth (%)
Numbers only; they are read as %.

Query block: So what's the measured growth for this one? O=C1OC(C(Cl)(Cl)Cl)OC1C(Cl)(Cl)Cl (stereo not given)
Result block: 101

Query block: So what's the measured growth for this one? c1cnc2[nH]cc(-c3nc(-c4ccsc4)cs3)c2c1
Result block: 88.9

Query block: So what's the measured growth for this one? CCOC(=O)c1cocc1C(=O)O
Result block: 104

Query block: So what's the measured growth for this one? CC(=O)[C@H]1CC[C@]2(C)[C@@H]1CC[C@@H]1[C@@]3(C)CC(CCC#N)(CCC#N)C(=O)C(C)(C)[C@@H]3CC[C@]12C
Result block: 94.5

Query block: So what's the measured growth for this one? O=C1/C=C/[C@@H](O)[C@@H]2C[C@@H](O)C[C@H]2/C=C/CCC[C@H](CCc2ccc(C(F)(F)F)cc2)O1
Result block: -6.74

Query block: So what's the measured growth for this one? COc1cccc(N=Nc2cccc(OC)c2)c1
Result block: 95.8

Query block: So what's the measured growth for this one? COc1ccc(-c2cc(-c3ccccc3)nc(SCCCC(=O)NO)n2)cc1
Result block: 17.3

Query block: So what's the measured growth for this one? CCN(CC)CCOc1cccc2c1C(=O)c1cccc(OCCN(CC)CC)c1C2=O
Result block: 33.9

Query block: So what's the measured growth for this one? O=C1CC(=O)N(C(=O)c2nn(-c3ccc(Cl)cc3)cc2O)N1
Result block: 46.5

Query block: So what's the measured growth for this one? COc1cc(C2CC(c3cc(Cl)c(C)cc3O)=NN2c2ccc(S(N)(=O)=O)cc2)cc(OC)c1OC (stereo not given)
Result block: 2.06
